System: 873145-292-R-J1-PDC complex spheroid viability
METHOD_SUMMARY: Anticancer human tumor 873145-292-R-J1-PDC patient-derived renal clear cell carcinoma cell line growth inhibition [POLQ]
COND: second compound 10 µM; first compound 1 µM; stronger effect = lower value

{"COMPOUND": "CC1COCCN1c1cc(C2(S(C)(=N)=O)CC2)nc(-c2ccnc3[nH]ccc23)n1 (stereo not given) + Cc1cccc(N(C)C(=O)C2C(O)CCN2c2nc(C)cc(C(F)(F)F)c2C#N)c1", "viability, T/C, %": 91.5}
{"COMPOUND": "CCc1cc2c(N3CCc4c(cc(Cn5ccnc5)cc4-c4cn(C)nc4C(F)(F)F)C3=O)ccnc2c(OC)n1 + Nc1ccc(C#CCN(C(=O)Cc2ncc(C(F)(F)F)cc2C(F)(F)F)c2ccc(F)cc2)nn1", "viability, T/C, %": 104}
{"COMPOUND": "CCCS(=O)(=O)Nc1ccc(F)c(C(=O)c2c[nH]c3ncc(-c4ccc(Cl)cc4)cc23)c1F + COC1C(OC(N)=O)C(O)C(Oc2ccc3c(O)c(NC(=O)c4ccc(O)c(CC=C(C)C)c4)c(=O)oc3c2C)OC1(C)C", "viability, T/C, %": 106}
{"COMPOUND": "COc1cccc(OCCCN)c1-c1cc(Nc2cnc(C#N)cn2)n[nH]1 + COC1C(OC(N)=O)C(O)C(Oc2ccc3c(O)c(NC(=O)c4ccc(O)c(CC=C(C)C)c4)c(=O)oc3c2C)OC1(C)C", "viability, T/C, %": 78.3}
{"COMPOUND": "C#Cc1c(F)ccc2cc(O)cc(-c3ncc4c(N5CC6CCC(C5)N6)nc(OCC56CCCN5CC(F)C6)nc4c3F)c12 (stereo not given) + Nc1ccc(C#CCN(C(=O)Cc2ncc(C(F)(F)F)cc2C(F)(F)F)c2ccc(F)cc2)nn1", "viability, T/C, %": 98.2}
{"COMPOUND": "CC1COCCN1c1cc(C2(S(C)(=N)=O)CC2)nc(-c2ccnc3[nH]ccc23)n1 (stereo not given) + COC1C(OC(N)=O)C(O)C(Oc2ccc3c(O)c(NC(=O)c4ccc(O)c(CC=C(C)C)c4)c(=O)oc3c2C)OC1(C)C", "viability, T/C, %": 81.1}
{"COMPOUND": "C=CC(=O)N1CCN(c2nc(=O)n(-c3c(C)ccnc3C(C)C)c3nc(-c4c(O)cccc4F)c(F)cc23)C(C)C1 (stereo not given) + Nc1ccc(C#CCN(C(=O)Cc2ncc(C(F)(F)F)cc2C(F)(F)F)c2ccc(F)cc2)nn1", "viability, T/C, %": 132}
{"COMPOUND": "CCc1cc2c(N3CCc4c(cc(Cn5ccnc5)cc4-c4cn(C)nc4C(F)(F)F)C3=O)cc(C)nc2c(OC)n1 + Cc1cccc(N(C)C(=O)C2C(O)CCN2c2nc(C)cc(C(F)(F)F)c2C#N)c1", "viability, T/C, %": 88.5}
{"COMPOUND": "COc1cccc(OCCCN)c1-c1cc(Nc2cnc(C#N)cn2)n[nH]1 + Nc1ccc(C#CCN(C(=O)Cc2ncc(C(F)(F)F)cc2C(F)(F)F)c2ccc(F)cc2)nn1", "viability, T/C, %": 95.5}
{"COMPOUND": "CCc1cc2c(N3CCc4c(cc(Cn5ccnc5)cc4-c4cn(C)nc4C(F)(F)F)C3=O)ccnc2c(OC)n1 + Cc1cccc(N(C)C(=O)C2C(O)CCN2c2nc(C)cc(C(F)(F)F)c2C#N)c1", "viability, T/C, %": 84.5}

----------
Test system: 873145-292-R-J1-PDC complex spheroid viability
METHOD_SUMMARY: Anticancer human tumor 873145-292-R-J1-PDC cell line growth inhibition [POLQ];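 note: spheroids exposed to compounds for 7 days before viability readout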
COND: curve of first compound; second compound 0.1 µM
pIC50: −log10 of the molar value.
REPORTED_ENDPOINT: pIC50

{"COMPOUND": "COc1cccc2c1C(=O)c1c(O)c3c(c(O)c1C2=O)CC(O)(C(=O)CO)CC3OC1CC(N)C(O)C(C)O1 (stereo not drawn) + COC1C(OC(N)=O)C(O)C(Oc2ccc3c(O)c(NC(=O)c4ccc(O)c(CC=C(C)C)c4)c(=O)oc3c2C)OC1(C)C", "MEASURED_RESULT": 5.80}
{"COMPOUND": "CNCc1ccc(-c2[nH]c3cc(F)cc4c3c2CCNC4=O)cc1 + Cc1cccc(N(C)C(=O)C2C(O)CCN2c2nc(C)cc(C(F)(F)F)c2C#N)c1", "MEASURED_RESULT": "< 5.00"}
{"COMPOUND": "O=C(Nc1ccc(O)c(NS(=O)(=O)c2ccc(F)cc2)c1)c1ccc(-c2ccccc2)cc1 + Cc1cccc(N(C)C(=O)C2C(O)CCN2c2nc(C)cc(C(F)(F)F)c2C#N)c1", "MEASURED_RESULT": "< 5.00"}

----------
System: 873145-292-R-J1-PDC complex spheroid viability
METHOD_SUMMARY: Anticancer human tumor 873145-292-R-J1-PDC cell line growth inhibition [POLQ];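 note: spheroids exposed to compounds for 7 days before viability readout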;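 for viability, T/C: luminescence signal used as surrogate for viable cell content; 100% = DMSO vehicle control viability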
COND: second compound 0.1 µM; first compound 0.0316 µM; stronger effect = lower value

{"COMPOUND": "CC1COCCN1c1cc(C2(S(C)(=N)=O)CC2)nc(-c2ccnc3[nH]ccc23)n1 (stereo unspecified) + Nc1ccc(C#CCN(C(=O)Cc2ncc(C(F)(F)F)cc2C(F)(F)F)c2ccc(F)cc2)nn1", "viability, T/C (%)": 107}
{"COMPOUND": "CC[C@@]1(O)C(=O)OCc2c1cc1n(c2=O)Cc2cc3c(CN(C)C)c(O)ccc3nc2-1 + Cc1cccc(N(C)C(=O)C2C(O)CCN2c2nc(C)cc(C(F)(F)F)c2C#N)c1", "viability, T/C (%)": 74.4}
{"COMPOUND": "O=c1[nH]cc(F)c(=O)[nH]1 + Nc1ccc(C#CCN(C(=O)Cc2ncc(C(F)(F)F)cc2C(F)(F)F)c2ccc(F)cc2)nn1", "viability, T/C (%)": 104}
{"COMPOUND": "CCc1cc2c(N3CCc4c(cc(Cn5ccnc5)cc4-c4cn(C)nc4C(F)(F)F)C3=O)ccnc2c(OC)n1 + COC1C(OC(N)=O)C(O)C(Oc2ccc3c(O)c(NC(=O)c4ccc(O)c(CC=C(C)C)c4)c(=O)oc3c2C)OC1(C)C", "viability, T/C (%)": 106}
{"COMPOUND": "Nc1ccn(C2OC(CO)C(O)C2(F)F)c(=O)n1 (stereo unspecified) + COC1C(OC(N)=O)C(O)C(Oc2ccc3c(O)c(NC(=O)c4ccc(O)c(CC=C(C)C)c4)c(=O)oc3c2C)OC1(C)C", "viability, T/C (%)": 51.2}
{"COMPOUND": "CCCS(=O)(=O)Nc1ccc(F)c(C(=O)c2c[nH]c3ncc(-c4ccc(Cl)cc4)cc23)c1F + Cc1cccc(N(C)C(=O)C2C(O)CCN2c2nc(C)cc(C(F)(F)F)c2C#N)c1", "viability, T/C (%)": 105}
{"COMPOUND": "COc1cc2cc(C(=O)CCC(=O)O)sc2cc1OC + Cc1cccc(N(C)C(=O)C2C(O)CCN2c2nc(C)cc(C(F)(F)F)c2C#N)c1", "viability, T/C (%)": 97.9}
{"COMPOUND": "CNCc1ccc(-c2[nH]c3cc(F)cc4c3c2CCNC4=O)cc1 + COC1C(OC(N)=O)C(O)C(Oc2ccc3c(O)c(NC(=O)c4ccc(O)c(CC=C(C)C)c4)c(=O)oc3c2C)OC1(C)C", "viability, T/C (%)": 97}
{"COMPOUND": "O=C(c1cc(Cc2n[nH]c(=O)c3ccccc23)ccc1F)N1CCN(C(=O)C2CC2)CC1 + COC1C(OC(N)=O)C(O)C(Oc2ccc3c(O)c(NC(=O)c4ccc(O)c(CC=C(C)C)c4)c(=O)oc3c2C)OC1(C)C", "viability, T/C (%)": 117}
{"COMPOUND": "O=C(c1cc(Cc2n[nH]c(=O)c3ccccc23)ccc1F)N1CCN(C(=O)C2CC2)CC1 + Nc1ccc(C#CCN(C(=O)Cc2ncc(C(F)(F)F)cc2C(F)(F)F)c2ccc(F)cc2)nn1", "viability, T/C (%)": 112}
{"COMPOUND": "C=CCn1c(=O)c2cnc(Nc3ccc(N4CCN(C)CC4)cc3)nc2n1-c1cccc(C(C)(C)O)n1 + Cc1cccc(N(C)C(=O)C2C(O)CCN2c2nc(C)cc(C(F)(F)F)c2C#N)c1", "viability, T/C (%)": 96}
{"COMPOUND": "COc1cc(C2c3cc4c(cc3C(OC3OC5COC(C)OC5C(O)C3O)C3COC(=O)C23)OCO4)cc(OC)c1O (stereo unspecified) + Cc1cccc(N(C)C(=O)C2C(O)CCN2c2nc(C)cc(C(F)(F)F)c2C#N)c1", "viability, T/C (%)": 91.2}
{"COMPOUND": "CCCS(=O)(=O)Nc1ccc(F)c(C(=O)c2c[nH]c3ncc(-c4ccc(Cl)cc4)cc23)c1F + COC1C(OC(N)=O)C(O)C(Oc2ccc3c(O)c(NC(=O)c4ccc(O)c(CC=C(C)C)c4)c(=O)oc3c2C)OC1(C)C", "viability, T/C (%)": 113}
{"COMPOUND": "CC1COCCN1c1cc(C2(O)CC3CCC(C2)O3)c2cnn(-c3ccn[nH]3)c2n1 (stereo unspecified) + Cc1cccc(N(C)C(=O)C2C(O)CCN2c2nc(C)cc(C(F)(F)F)c2C#N)c1", "viability, T/C (%)": 93.5}
{"COMPOUND": "O=c1[nH]cc(F)c(=O)[nH]1 + Cc1cccc(N(C)C(=O)C2C(O)CCN2c2nc(C)cc(C(F)(F)F)c2C#N)c1", "viability, T/C (%)": 118}
{"COMPOUND": "CC1COCCN1c1cc(C2(S(C)(=N)=O)CC2)nc(-c2ccnc3[nH]ccc23)n1 (stereo unspecified) + Cc1cccc(N(C)C(=O)C2C(O)CCN2c2nc(C)cc(C(F)(F)F)c2C#N)c1", "viability, T/C (%)": 104}
{"COMPOUND": "CC1COCCN1c1cc(C2(S(C)(=N)=O)CC2)nc(-c2ccnc3[nH]ccc23)n1 (stereo unspecified) + COC1C(OC(N)=O)C(O)C(Oc2ccc3c(O)c(NC(=O)c4ccc(O)c(CC=C(C)C)c4)c(=O)oc3c2C)OC1(C)C", "viability, T/C (%)": 105}
{"COMPOUND": "COc1cccc2c1C(=O)c1c(O)c3c(c(O)c1C2=O)CC(O)(C(=O)CO)CC3OC1CC(N)C(O)C(C)O1 (stereo unspecified) + Cc1cccc(N(C)C(=O)C2C(O)CCN2c2nc(C)cc(C(F)(F)F)c2C#N)c1", "viability, T/C (%)": 92.2}
{"COMPOUND": "Nc1ccn(C2OC(CO)C(O)C2(F)F)c(=O)n1 (stereo unspecified) + Nc1ccc(C#CCN(C(=O)Cc2ncc(C(F)(F)F)cc2C(F)(F)F)c2ccc(F)cc2)nn1", "viability, T/C (%)": 71.6}
{"COMPOUND": "COc1cccc2c1C(=O)c1c(O)c3c(c(O)c1C2=O)CC(O)(C(=O)CO)CC3OC1CC(N)C(O)C(C)O1 (stereo unspecified) + COC1C(OC(N)=O)C(O)C(Oc2ccc3c(O)c(NC(=O)c4ccc(O)c(CC=C(C)C)c4)c(=O)oc3c2C)OC1(C)C", "viability, T/C (%)": 99.5}
{"COMPOUND": "COc1cccc(OCCCN)c1-c1cc(Nc2cnc(C#N)cn2)n[nH]1 + Nc1ccc(C#CCN(C(=O)Cc2ncc(C(F)(F)F)cc2C(F)(F)F)c2ccc(F)cc2)nn1", "viability, T/C (%)": 74.8}

Every entry's value here was drawn from PubChem BioAssay AID1963834.
